Experiment: Plasma pharmacokinetics of BI 187004 after single oral doses (LC–MS/MS)
Conditions: male, human, plasma, po, 10 mg, Plasma concentration Mean, 10 mg single oral; 36 h

Smiles Record: N#Cc1ccc2c(c1)[C@H]1CCCN(C(=O)c3ccc4[nH]cnc4c3)[C@H]1C2
concentration at 36 h: 30.2 nM

---

Assay: Plasma pharmacokinetics of BI 187004 after single oral doses (LC–MS/MS)
Conditions: male, human, plasma, po, 20 mg, BI 187004 plasma concentrations, 20 mg single oral, planned time 8 h, Min

Smiles Record: N#Cc1ccc2c(c1)[C@H]1CCCN(C(=O)c3ccc4[nH]cnc4c3)[C@H]1C2
Value Units: nM
concentration at 8 h: 354

---

Experiment: Plasma pharmacokinetics of BI 187004 after single oral doses (LC–MS/MS)
Settings: male, human, plasma, po, 40 mg, BI 187004 plasma concentrations, 40 mg single oral, planned time 1 h, Max

Smiles Record: N#Cc1ccc2c(c1)[C@H]1CCCN(C(=O)c3ccc4[nH]cnc4c3)[C@H]1C2
Value Units: nM
concentration at 1 h: 2820

---

Test: Plasma pharmacokinetics of BI 187004 after single oral doses (LC–MS/MS)
Conditions: male, human, plasma, po, 240 mg, BI 187004 plasma concentrations, Min, 240 mg single oral, planned time 96 h
Assay Endpoint: concentration at 96 h

Smiles Record: N#Cc1ccc2c(c1)[C@H]1CCCN(C(=O)c3ccc4[nH]cnc4c3)[C@H]1C2
Assay Endpoint: concentration at 96 h
Test Value: 15.8 nM

---

Assay: Plasma pharmacokinetics of BI 187004 after single oral doses (LC–MS/MS)
Settings: male, human, plasma, po, 5 mg, Plasma concentration Median, 5 mg single oral; 36 h

Compound: N#Cc1ccc2c(c1)[C@H]1CCCN(C(=O)c3ccc4[nH]cnc4c3)[C@H]1C2 [BI 187004]
concentration at 36 h: 15.5 nM

---

Test: Plasma pharmacokinetics of BI 187004 after single oral doses (LC–MS/MS)
Details: male, human, plasma, po, 5 mg, Plasma concentration Mean, 5 mg single oral; 4 h
Assay Endpoint: concentration at 4 h (nM)

Compound: N#Cc1ccc2c(c1)[C@H]1CCCN(C(=O)c3ccc4[nH]cnc4c3)[C@H]1C2 [BI 187004]
Assay Endpoint: concentration at 4 h
Test Value: 105

---

Assay: Plasma pharmacokinetics of BI 187004 after single oral doses (LC–MS/MS)
Conditions: male, human, plasma, oral, 40 mg, Plasma C24 gMean (range), 40 mg single dose; 24 h
Assay Endpoint: concentration at 24 h (nM)

Smiles Record: N#Cc1ccc2c(c1)[C@H]1CCCN(C(=O)c3ccc4[nH]cnc4c3)[C@H]1C2
Test Value: 321

---

Assay: BI 187004 concentration in subcutaneous adipose tissue biopsies (LC–MS/MS)
Assay type: in vivo, human
Details: male, human, subcutaneous adipose tissue, oral; 10 mg single dose; adipose tissue; 10 h; read-out: AT C10 gMean (range)

Smiles Record: N#Cc1ccc2c(c1)[C@H]1CCCN(C(=O)c3ccc4[nH]cnc4c3)[C@H]1C2
concentration at 10 h / nM: 17.9

---

Assay: Plasma pharmacokinetics of BI 187004 after single oral doses (LC–MS/MS)
Details: male, human, plasma, po, 20 mg, BI 187004 plasma concentrations, 20 mg single oral, planned time 3 h, Min

Molecule: N#Cc1ccc2c(c1)[C@H]1CCCN(C(=O)c3ccc4[nH]cnc4c3)[C@H]1C2 [BI 187004]
concentration at 3 h / nM: 586

---

Experiment: Plasma pharmacokinetics of BI 187004 after single oral doses (LC–MS/MS)
Conditions: male, human, plasma, po, 80 mg, BI 187004 plasma concentrations, 80 mg single oral, planned time 2 h, Mean

Smiles Record: N#Cc1ccc2c(c1)[C@H]1CCCN(C(=O)c3ccc4[nH]cnc4c3)[C@H]1C2
concentration at 2 h, nM: 2330

---

Test: Plasma pharmacokinetics of BI 187004 after single oral doses (LC–MS/MS)
Conditions: male, human, plasma, po, 20 mg, BI 187004 plasma concentrations, 20 mg single oral, planned time 5 h, Mean
Assay Endpoint: concentration at 5 h (nM)

Molecule: N#Cc1ccc2c(c1)[C@H]1CCCN(C(=O)c3ccc4[nH]cnc4c3)[C@H]1C2 [BI 187004]
Assay Endpoint: concentration at 5 h
Value Units: nM
Test Value: 653

---

Assay: Plasma pharmacokinetics of BI 187004 after single oral doses (LC–MS/MS)
Conditions: male, human, plasma, po, 240 mg, BI 187004 plasma concentrations, Mean, 240 mg single oral, planned time 8 h
Assay Endpoint: concentration at 8 h

Smiles Record: N#Cc1ccc2c(c1)[C@H]1CCCN(C(=O)c3ccc4[nH]cnc4c3)[C@H]1C2
Test Value: 3.85 µM

---

Test: Plasma pharmacokinetics of BI 187004 after single oral doses (LC–MS/MS)
Details: male, human, plasma, po, 40 mg, BI 187004 plasma concentrations, 40 mg single oral, planned time 24 h, Median

Compound: N#Cc1ccc2c(c1)[C@H]1CCCN(C(=O)c3ccc4[nH]cnc4c3)[C@H]1C2 [BI 187004]
concentration at 24 h [nM]: 335

---

Assay: Plasma pharmacokinetics of BI 187004 after single oral doses (LC–MS/MS)
Conditions: male, human, plasma, po, 2.5 mg, Plasma concentration Median, 2.5 mg single oral; 24 h

Molecule: N#Cc1ccc2c(c1)[C@H]1CCCN(C(=O)c3ccc4[nH]cnc4c3)[C@H]1C2 [BI 187004]
concentration at 24 h, nM: 4.19

---

Test: Plasma pharmacokinetics of BI 187004 after single oral doses (LC–MS/MS)
Conditions: male, human, plasma, po, 10 mg

Smiles Record: N#Cc1ccc2c(c1)[C@H]1CCCN(C(=O)c3ccc4[nH]cnc4c3)[C@H]1C2
Cmax: 502 nM

---

Test: Plasma pharmacokinetics of BI 187004 after single oral doses (LC–MS/MS)
Conditions: male, human, plasma, po, 240 mg, BI 187004 plasma concentrations, Mean, 240 mg single oral, planned time 2 h
Assay Endpoint: concentration at 2 h (µM)

Compound: N#Cc1ccc2c(c1)[C@H]1CCCN(C(=O)c3ccc4[nH]cnc4c3)[C@H]1C2 [BI 187004]
Assay Endpoint: concentration at 2 h
Value Units: µM
Test Value: 6.26

---

Test: Plasma pharmacokinetics of BI 187004 after single oral doses (LC–MS/MS)
Conditions: male, human, plasma, po, 40 mg, BI 187004 plasma concentrations, 40 mg single oral, planned time 6 h, Median
Assay Endpoint: concentration at 6 h (nM)

Molecule: N#Cc1ccc2c(c1)[C@H]1CCCN(C(=O)c3ccc4[nH]cnc4c3)[C@H]1C2 [BI 187004]
Assay Endpoint: concentration at 6 h
Test Value: 1130

---

Assay: Plasma pharmacokinetics of BI 187004 after single oral doses (LC–MS/MS)
Details: male, human, plasma, po, 360 mg, BI 187004 plasma concentrations, Median, 360 mg single oral, planned time 24 h

Smiles Record: N#Cc1ccc2c(c1)[C@H]1CCCN(C(=O)c3ccc4[nH]cnc4c3)[C@H]1C2
Value Units: nM
concentration at 24 h: 2660

---

Test: Plasma pharmacokinetics of BI 187004 after single oral doses (LC–MS/MS)
Conditions: male, human, plasma, po, 80 mg, BI 187004 plasma concentrations, 80 mg single oral, planned time 1.5 h, Median

Smiles Record: N#Cc1ccc2c(c1)[C@H]1CCCN(C(=O)c3ccc4[nH]cnc4c3)[C@H]1C2
concentration at 1.5 h (nM): 2540

---

Experiment: Plasma pharmacokinetics of BI 187004 after single oral doses (LC–MS/MS)
Conditions: male, human, plasma, po, 20 mg, BI 187004 plasma concentrations, 20 mg single oral, planned time 6 h, Max
Assay Endpoint: concentration at 6 h (nM)

Smiles Record: N#Cc1ccc2c(c1)[C@H]1CCCN(C(=O)c3ccc4[nH]cnc4c3)[C@H]1C2
Test Value: 847

---

Assay: Plasma pharmacokinetics of BI 187004 after single oral doses (LC–MS/MS)
Settings: male, human, plasma, po, 80 mg

Compound: N#Cc1ccc2c(c1)[C@H]1CCCN(C(=O)c3ccc4[nH]cnc4c3)[C@H]1C2 [BI 187004]
Cmax / nM: 2460

---

Assay: Plasma pharmacokinetics of BI 187004 after single oral doses (LC–MS/MS)
Settings: male, human, plasma, po, 10 mg, Plasma concentration Mean, 10 mg single oral; 72 h
Assay Endpoint: concentration at 72 h (nM)

Compound: N#Cc1ccc2c(c1)[C@H]1CCCN(C(=O)c3ccc4[nH]cnc4c3)[C@H]1C2 [BI 187004]
Assay Endpoint: concentration at 72 h
Test Value: 10.7

---

Experiment: Plasma pharmacokinetics of BI 187004 after single oral doses (LC–MS/MS)
Details: male, human, plasma, po, 360 mg, BI 187004 plasma concentrations, gMean, 360 mg single oral, planned time 3 h

Smiles Record: N#Cc1ccc2c(c1)[C@H]1CCCN(C(=O)c3ccc4[nH]cnc4c3)[C@H]1C2
Value Units: µM
concentration at 3 h: 9.14
